assay: pH stability of quenched linker-payloads in buffers (LCMS); assay type: physicochemical; details: pH 4.0, 3 Day, RT

compound	percentage of the remaining compound / %
CCCC1O[C@@H]2C[C@H]3[C@@H]4CCC5=CC(=O)C=C[C@]5(C)[C@H]4[C@@H](O)C[C@]3(C)[C@]2(C(=O)COCNC(=O)CNC(=O)CCC(=O)N2Cc3ccccc3-c3c(nnn3CC3OC4OC5C(CO)OC(OC6C(CO)OC(OC7C(CO)OC(OC8C(CO)OC(OC9C(CO)OC(OC3C(O)C4O)C(O)C9O)C(O)C8O)C(O)C7O)C(O)C6O)C(O)C5O)-c3ccccc32)O1 (stereo partly drawn)	100
CCCC1O[C@@H]2C[C@H]3[C@@H]4CCC5=CC(=O)C=C[C@]5(C)[C@H]4[C@@H](O)C[C@]3(C)[C@]2(C(=O)COCN(C)C(=O)CNC(=O)OCc2ccc(NC(=O)[C@H](CCCNC(N)=O)NC(=O)[C@@H](NC(=O)CCOCCOCCOCCOCCNC(=O)CCC(=O)N3Cc4ccccc4-c4c(nnn4CCOCCOCCOCCOCCC(=O)NCCS(=O)(=O)O)-c4ccccc43)C(C)C)cc2)O1 (stereo partly drawn)	99
CCCC1O[C@@H]2C[C@H]3[C@@H]4CCC5=CC(=O)C=C[C@]5(C)[C@H]4[C@@H](O)C[C@]3(C)[C@]2(C(=O)COC2CCCN2C(=O)CNC(=O)CCOCCOCCOCCOCCNC(=O)CCC(=O)N2Cc3ccccc3-c3c(nnn3CC3OC4OC5C(CO)OC(OC6C(CO)OC(OC7C(CO)OC(OC8C(CO)OC(OC9C(CO)OC(OC3C(O)C4O)C(O)C9O)C(O)C8O)C(O)C7O)C(O)C6O)C(O)C5O)-c3ccccc32)O1 (stereo partly drawn)	2

----------
In this section, each of the compounds is paired with its reported percentage of the remaining compound.
assay: pH stability of quenched linker-payloads in buffers (LCMS); assay type: physicochemical; conditions: pH 5.0, 2 Day, RT

compound	readout-unit	percentage of the remaining compound
CC(C)[C@H](NC(=O)CCOCCOCCOCCOCCNC(=O)CCC(=O)N1Cc2ccccc2-c2c(nnn2CCOCCOCCOCCOCCC(=O)NCCS(=O)(=O)O)-c2ccccc21)C(=O)N[C@@H](CCCNC(N)=O)C(=O)Nc1ccc(COC(=O)NCC(=O)NCOCC(=O)[C@@]2(O)[C@H](C)C[C@H]3[C@@H]4CCC5=CC(=O)C=C[C@]5(C)[C@@]4(F)[C@@H](O)C[C@@]32C)cc1	%	100
CCCC1O[C@@H]2C[C@H]3[C@@H]4CCC5=CC(=O)C=C[C@]5(C)[C@H]4[C@@H](O)C[C@]3(C)[C@]2(C(=O)COCN(C)C(=O)CNC(=O)OCc2ccc(NC(=O)[C@H](CCCNC(N)=O)NC(=O)[C@@H](NC(=O)CCOCCOCCOCCOCCNC(=O)CCC(=O)N3Cc4ccccc4-c4c(nnn4CCOCCOCCOCCOCCC(=O)NCCS(=O)(=O)O)-c4ccccc43)C(C)C)cc2)O1 (stereo partly shown)	%	100
CCCC1O[C@@H]2C[C@H]3[C@@H]4CCC5=CC(=O)C=C[C@]5(C)[C@H]4[C@@H](O)C[C@]3(C)[C@]2(C(=O)COC2CCCN2C(=O)CNC(=O)CCOCCOCCOCCOCCNC(=O)CCC(=O)N2Cc3ccccc3-c3c(nnn3CC3OC4OC5C(CO)OC(OC6C(CO)OC(OC7C(CO)OC(OC8C(CO)OC(OC9C(CO)OC(OC3C(O)C4O)C(O)C9O)C(O)C8O)C(O)C7O)C(O)C6O)C(O)C5O)-c3ccccc32)O1 (stereo partly shown)	%	86
CCCC1O[C@@H]2C[C@H]3[C@@H]4CCC5=CC(=O)C=C[C@]5(C)[C@H]4[C@@H](O)C[C@]3(C)[C@]2(C(=O)COCNC(=O)CNC(=O)CCC(=O)N2Cc3ccccc3-c3c(nnn3CC3OC4OC5C(CO)OC(OC6C(CO)OC(OC7C(CO)OC(OC8C(CO)OC(OC9C(CO)OC(OC3C(O)C4O)C(O)C9O)C(O)C8O)C(O)C7O)C(O)C6O)C(O)C5O)-c3ccccc32)O1 (stereo partly shown)	%	100
